Source: patent US8012956B2

System: HSP90 (Homo sapiens) | Read-out: pIC50
pIC50: −log10 of the molar value.
endpoint: pIC50

[[record]]
molecule = "COc1cccc(C(=O)NC2CC3CCC(C2)N3c2ccc(C(=O)NC(C)c3ccc(Cl)cc3)cn2)c1C (stereo not shown)"
endpoint = "pIC50"
value_measured = "> 6.30"

[[record]]
molecule = "COc1cccc(C(=O)NC2CC3CCC(C2)N3c2ccc(C(=O)N[C@@H](C)CO)cn2)c1C (stereo partly shown)"
endpoint = "pIC50"
value_measured = "5.70 to 6.00"

[[record]]
molecule = "NC(=O)c1ccc(C(=O)NC2CC3CCC(C2)N3c2ccc(C(=O)NC3CCCC3)cn2)cc1NCC1CC1 (stereo not shown)"
endpoint = "pIC50"
value_measured = "> 6.30"

[[record]]
molecule = "C=CCc1c(OC)cccc1C(=O)N[C@H]1C[C@H]2CC[C@@H](C1)N2c1ccc(C(=O)NCc2ccccc2)cn1"
endpoint = "pIC50"
value_measured = "6.00 to 6.30"

[[record]]
molecule = "COc1cccc(C(=O)N[C@H]2C[C@H]3CC[C@@H](C2)N3c2ccc(C(=O)NCc3ccc(N4CCN(C)CC4)cc3)cn2)c1C"
endpoint = "pIC50"
value_measured = "> 6.30"

[[record]]
molecule = "COc1cccc(C(=O)N[C@H]2C[C@H]3CC[C@@H](C2)N3c2ccc(C(=O)NCc3cccc(Cl)c3)cn2)c1C"
endpoint = "pIC50"
value_measured = "5.00 to 5.70"

[[record]]
molecule = "Cc1c(N)cccc1C(=O)N[C@H]1C[C@H]2CC[C@@H](C1)N2c1ccc(C(=O)NCc2ccccc2)cn1"
endpoint = "pIC50"
value_measured = "5.00 to 5.70"

[[record]]
molecule = "CCNc1cc(C(=O)N[C@H]2C[C@H]3CC[C@@H](C2)N3c2ccc(C(C)=O)cn2)ccc1C(N)=O"
endpoint = "pIC50"
value_measured = "> 6.30"

[[record]]
molecule = "CCC(CC)Nc1cc(C(=O)N[C@H]2C[C@H]3CC[C@@H](C2)N3c2ccc(C(=O)C3CC3)cn2)c(Cl)cc1C(N)=O"
endpoint = "pIC50"
value_measured = "> 6.30"

[[record]]
molecule = "Cc1cc(C(=O)N[C@H]2C[C@H]3CC[C@@H](C2)N3c2ccc(C(=O)NC3CN(C)C3)cn2)c(C)cc1C(N)=O"
endpoint = "pIC50"
value_measured = "> 6.30"

[[record]]
molecule = "Cc1cc(C(=O)N[C@H]2C[C@H]3CC[C@@H](C2)N3c2ccc(C(=O)N[C@@H]3CCN(C(C)C)C3)cn2)c(C)cc1C(N)=O"
endpoint = "pIC50"
value_measured = "> 6.30"

[[record]]
molecule = "NC(=O)c1ccc(C(=O)N[C@H]2C[C@H]3CC[C@@H](C2)N3c2ccc(C(=O)C3CC3)cn2)cc1Nc1ccncc1"
endpoint = "pIC50"
value_measured = "> 6.30"

[[record]]
molecule = "NC(=O)c1ccc(N2[C@@H]3CC[C@H]2C[C@@H](NC(=O)c2ccc(C(N)=O)c(NC4CCC4)c2)C3)nc1"
endpoint = "pIC50"
value_measured = "> 6.30"

[[record]]
molecule = "COc1cccc(C(=O)N[C@H]2C[C@H]3CC[C@@H](C2)N3c2ccc(C(=O)NCc3c(F)cccc3OC)cn2)c1C"
endpoint = "pIC50"
value_measured = "5.70 to 6.00"

[[record]]
molecule = "COc1cccc(C(=O)N[C@H]2C[C@H]3CC[C@@H](C2)N3c2ccc(C(=O)NCc3cc(OC)c(OC)c(OC)c3)cn2)c1C"
endpoint = "pIC50"
value_measured = "5.70 to 6.00"

[[record]]
molecule = "CC(=O)c1ccc(N2[C@@H]3CC[C@H]2C[C@@H](NC(=O)c2ccc(C(N)=O)c(NC4CCCCC4)c2)C3)nc1"
endpoint = "pIC50"
value_measured = "> 6.30"

